Biological target: KRAS G12C (Homo sapiens, UniProt P01116, G12C)
Sequence (P01116 1-188 isoform P01116-2 G12C): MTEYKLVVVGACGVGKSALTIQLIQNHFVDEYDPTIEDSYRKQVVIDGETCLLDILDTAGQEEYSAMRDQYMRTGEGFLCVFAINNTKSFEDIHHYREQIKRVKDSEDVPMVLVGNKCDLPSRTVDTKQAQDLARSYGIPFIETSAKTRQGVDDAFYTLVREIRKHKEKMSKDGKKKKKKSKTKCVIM
Assay: KRAS G12C NEA-HTRF experiment (SOS1-catalyzed displacement of GDP by GTP)
Listing: pIC50 of selected compounds
Value format note: pIC50 is -log10 of concentration (mol/L); just state the number.

Quickly give me recorded pIC50 for C=CC(=O)N1CCN2C(=O)c3c(N4C[C@@H](N5CC(C#N)C5)CC4(C)C)nc(-c4ccccc4F)c(Cl)c3OC[C@H]2C1 (single isomer, unassigned)
7.62

Given the compound C=CC(=O)N1CCN2C(=O)c3c(N4C[C@@H](N5CCOCC5)CC4(C)C)nc(-c4c(O)cccc4F)c(Cl)c3OC[C@H]2C1 (single isomer, unassigned) , write its reported pIC50.
8.10

Look up and state reported pIC50 for C=CC(=O)N1CCN2C(=O)c3c(N4C[C@H](N5CC(C#N)C5)CC4(C)C)nc(-c4ccccc4F)c(Cl)c3OC[C@H]2C1 (single isomer, unassigned)
6.46

Give pIC50 for the following compound: C=CC(=O)N1CCN2C(=O)c3c(N4CC[C@H](OC)[C@@H]4C)nc(-c4c(O)cccc4F)c(Cl)c3OC[C@H]2C1
7.92

Supply measured pIC50 of C=CC(=O)N1CCN2C(=O)c3c(N4C[C@@H](N5CCN(C)CC5)CC4(C)C)nc(-c4ccccc4F)c(F)c3OC[C@H]2C1 (single isomer, unassigned) in your reply.
7.05

====

Overview of recorded IC50 for various compounds
Tested on: KRAS G12C mutant NCI-H358 cells
Test: Cell proliferation inhibition experiment, 3D spheroid, CellTiter-Glo, NCI-H358
Format: cell-based, human
Conditions: Homo sapiens, NCI-H358, 120 h, NCI-H358 (KRAS G12C mutant) 3D spheroid, 5 days with compound, CellTiter-Glo; read-out: H358 IC50
Field format: number, assumed nM, no unit text.

Some compounds with known IC50 results, for comparison:
C=CC(=O)N1CCN2C(=O)c3c(N4C[C@H](N(C)C)CC4(C)C)nc(-c4cccc(C)c4F)c(Cl)c3OC[C@H]2C1 (single isomer, unassigned)
8
C=CC(=O)N1CCN2C(=O)c3c(N4C[C@@H](C)N(C)C[C@@H]4C)nc(-c4ccccc4F)c(Cl)c3OC[C@H]2C1
144

Shifting focus to the compound that follows.
Query IC50 for C=CC(=O)N1CCN2C(=O)c3c(N4CCOC5(CC5)C4)nc(-c4c(O)cccc4F)c(Cl)c3OC[C@H]2C1
14

====

Test system: KRAS G12C mutant NCI-H358 cells
Experiment: Cell proliferation inhibition experiment, 3D spheroid, CellTiter-Glo, NCI-H358
Format: cell-based, human
Details: Homo sapiens, NCI-H358, 120 h, NCI-H358 (KRAS G12C mutant) 3D spheroid, 5 days with compound, CellTiter-Glo; read-out: H358 IC50
pIC50: −log10 of the molar value.
// Not met strictly below 8 in pIC50; Met otherwise

C=CC(=O)N1CCN2C(=O)c3c(N4CCC5(CCCC5)C4)nc(-c4c(O)cccc4F)c(Cl)c3OC[C@H]2C1 [Z34]
Not met

Check if pIC50 >= 8 (inclusive). Item: C=CC(=O)N1CCN2C(=O)c3c(NC(=O)CC(C)(C)C)nc(-c4c(O)cccc4F)c(Cl)c3OC[C@H]2C1 [Z33]
Not met

Given the entry C=CC(=O)N1CCN2C(=O)c3c(N4C[C@@H](N(C)CCOC)CC4(C)C)nc(-c4ccccc4F)c(Cl)c3OC[C@H]2C1 (single isomer, unassigned) [Z406-2] , answer whether its pIC50 meets or surpasses 8.
Not met
